tested target: Protein disulfide-isomerase (Homo sapiens)
assay procedure: inhibition of PDI-mediated insulin reduction – biochemical, turbidity, absorbance, cherry-picked samples, set 2, dose response (AID 624274)
assay context: absorbance 650 nm
measurement name: AC50

Completed entries (count: 4):
CCc1cc(OCCCCNCc2ccccc2)ccc1Cl ... 10.6 µM
O=C(/C=C/c1ccc(NC(=O)c2ccccc2-c2ccccc2C(=O)O)cc1)c1ccccc1 ... 11.4 µM
CC[C@]12c3[nH]c4cc(-c5ccco5)ccc4c3CCN1C(=O)[C@@H](CC(=O)NCc1ccc(OC)c(OC)c1)C[C@@H]2C(=O)N1CCN(C(=O)c2ccco2)CC1 ... 4.25 µM
C[C@H]1CN([C@@H](C)CO)C(=O)c2cccc(NS(C)(=O)=O)c2O[C@@H]1CN(C)Cc1ccc(Oc2ccccc2)cc1 ... 19.5 µM

query: State its AC50: `C/C=C(\C)C(=O)NCCN1C2=NC[C@H](Cc3ccc(O)cc3)N2C[C@H]1Cc1ccc(O)cc1`
result: 15.4 µM

query: State its AC50: `COc1ccc(/C=C2\CN(Cc3ccccc3)C/C(=C\c3ccc(OC)c(O)c3)C2=O)cc1O`
result: 2.98 µM

query: State its AC50: `CCOC(=O)c1c(CN2CCN(CCO)CC2)n(-c2ccccc2)c2cc(Br)c(O)cc12`
result: 0.61 µM

query: State its AC50: O=C(NC(Cc1ccc(O)cc1)C(=O)N=Nc1c(O)[nH]c2ccccc12)c1ccccc1 (stereo unspecified)
result: 19.5 µM

query: State its AC50: `COc1ccc2c(CC(=O)OCC(=O)N(C)c3c(N)n(Cc4ccccc4)c(=O)[nH]c3=O)coc2c1`
result: 5.45 µM

query: State its AC50: `Oc1ccc(/C=C/c2nc(-c3ccccc3O)n(-c3ccccc3)n2)cc1`
result: 18.8 µM

query: State its AC50: COC(=O)CC1OCC=C2CN3CCC45C6=CC(=O)C(=O)C([N+](=O)[O-])=C6NC4C1C2CC35 (stereo unspecified)
result: 8.03 µM

query: State its AC50: `Cc1noc(C)c1S(=O)(=O)Nc1ccc2c(c1)CC(=O)N([C@H](C)CO)C[C@H](C)[C@@H](CN(C)S(=O)(=O)c1ccc(F)cc1)O2`
result: 19.5 µM

query: State its AC50: `C[C@@H]1O[C@@H](Oc2c(-c3cc(O)c(O)c(O)c3)oc3cc(O)cc(O)c3c2=O)[C@H](O)[C@H](O)[C@H]1O`
result: 9.8 µM

query: State its AC50: `C[C@@H]1O[C@@H](O[C@@H]2C(=O)c3c(O)cc(O)cc3O[C@H]2c2ccc(O)c(O)c2)[C@H](O)[C@H](O)[C@H]1O`
result: 10.2 µM

query: State its AC50: `Cc1c(O)ccc2c(CN3CCN(C/C=C/c4ccccc4)CC3)cc(=O)oc12`
result: 19.5 µM

query: State its AC50: O=S(=O)(c1ccccc1)N1N=C(c2ccc(O)cc2)CC1c1ccco1 (stereo unspecified)
result: 19.5 µM

* * *

Each entry below lists one item and its recorded AC50 value.
tested target: Protein disulfide-isomerase (Homo sapiens) (UniProt P07237)
Sequence (P07237 whole entry, looked up): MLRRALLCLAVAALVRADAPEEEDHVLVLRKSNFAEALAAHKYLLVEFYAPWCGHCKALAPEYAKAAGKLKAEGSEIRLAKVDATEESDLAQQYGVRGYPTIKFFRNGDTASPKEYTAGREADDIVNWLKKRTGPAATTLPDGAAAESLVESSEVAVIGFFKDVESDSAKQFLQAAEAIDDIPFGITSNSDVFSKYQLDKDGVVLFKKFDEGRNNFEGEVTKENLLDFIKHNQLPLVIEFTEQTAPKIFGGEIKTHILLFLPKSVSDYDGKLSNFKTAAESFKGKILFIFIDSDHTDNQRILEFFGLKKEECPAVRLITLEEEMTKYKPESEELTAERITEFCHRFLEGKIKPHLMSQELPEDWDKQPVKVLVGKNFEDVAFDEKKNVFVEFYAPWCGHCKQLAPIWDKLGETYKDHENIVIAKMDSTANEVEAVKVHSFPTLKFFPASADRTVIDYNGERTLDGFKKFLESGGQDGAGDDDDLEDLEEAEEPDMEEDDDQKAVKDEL
assay procedure: inhibition of PDI-mediated insulin reduction – biochemical, turbidity, absorbance, cherry-picked samples, set 2, dose response (AID 624274)
assay context: absorbance 650 nm

Cc1ccc2nc(N3CCN(Cc4nnnn4C4CCCC4)CC3)c(C#N)cc2c1 ... 4.05 µM
CCOC(=O)c1c(CNCCN(CC)CC)n(C)c2cc(Br)c(OC)cc12 ... 0.376 µM
C[C@H](CO)N1C[C@H](C)[C@H](CN(C)Cc2ccccc2)Oc2ccc(NC(=O)Nc3ccccc3)cc2CC1=O ... 19.5 µM
CCN1C(=O)C2C(c3ccccc3F)NC(Cc3ccc(O)cc3)(C(=O)OC)C2C1=O (stereo unspecified) ... 10.2 µM
CC(C)Sc1nnc([C@H](Cc2c[nH]c3ccccc23)NC(=O)OC(C)(C)C)o1 ... 19.5 µM

query: State its AC50: COc1ccc(C2c3ccc(O)cc3Oc3ncn(CCN4CCOCC4)c(=N)c32)cc1OC (stereo unspecified)
result: 15.5 µM

query: State its AC50: O=c1c(OC2OC(CO)C(O)C(O)C2O)c(-c2ccc(O)c(O)c2)oc2cc(O)cc(O)c12 (stereo unspecified)
result: 8.92 µM

query: State its AC50: `O=c1c(O[C@@H]2O[C@H](CO)[C@@H](O)[C@H](O)[C@H]2O)c(-c2ccc(O)cc2)oc2cc(O)cc(O)c12`
result: 19 µM

* * *

Each entry below lists one item and its recorded AC50 value.
tested target: Protein disulfide-isomerase (Homo sapiens) (UniProt P07237)
assay procedure: inhibition of PDI-mediated insulin reduction – biochemical, turbidity, absorbance, cherry-picked samples, set 2, dose response (AID 624274)
assay context: absorbance 650 nm

Completed entries (count: 2):
CC(C)(C)OC(=O)N[C@@H](Cc1c[nH]c2ccccc12)c1nnc(SCC(N)=O)o1 ... 19.5 µM
CCN1C[C@]2(COC(=O)c3ccccc3N)CC[C@H](OC)C34[C@@H]5C[C@H]6[C@H](OC)[C@@H]5[C@](O)(C[C@@H]6OC)[C@@](O)([C@H]13)[C@@H](OC)[C@@H]42 ... 19.5 µM

Continue with the compound presented below.
query: State its AC50: `C[C@H](CO)N1C[C@H](C)[C@@H](CN(C)S(=O)(=O)c2ccc(F)cc2)Oc2ccc(NC(=O)Cc3cn(C)c4ccccc34)cc2C1=O`
result: 19.5 µM

* * *

tested target: Protein disulfide-isomerase (Homo sapiens) (UniProt P07237)
assay procedure: inhibition of PDI-mediated insulin reduction – biochemical, turbidity, absorbance, cherry-picked samples, set 2, dose response (AID 624274)
assay context: absorbance 650 nm
measurement name: AC50

Completed entries (count: 6):
CCN(CC)CCNC(=O)C(C(=O)c1ccccc1)n1ccccc1=O (stereo not drawn) ... 2.16 µM
O=C1C[C@@H](c2ccc(O[C@@H]3O[C@H](CO)[C@@H](O)[C@H](O)[C@H]3O)cc2)Oc2cc(O)ccc21 ... 15.6 µM
C[C@H]1CN([C@@H](C)CO)C(=O)c2cc(NC(=O)Cc3cn(C)c4ccccc34)ccc2O[C@H]1CN(C)S(=O)(=O)c1ccc(F)cc1 ... 19.5 µM
COc1cc(-c2oc3cc(O)cc(O)c3c(=O)c2O[C@@H]2O[C@H](COC3O[C@@H](C)[C@H](O)[C@@H](O)[C@H]3O)[C@@H](O)[C@H](O)[C@H]2O)ccc1O (stereo partly drawn) ... 7.96 µM
CCOc1cc(N2CCOCC2)c(OCC)cc1NC(=O)COC(=O)[C@H](Cc1c[nH]c2ccccc12)NC(C)=O ... 19.5 µM
COC1/C=C/C=C(\C)Cc2cc(O)c(Cl)c(c2)N(C)C(=O)CC(OC(=O)C(C)C)C2(C)OC2C(C)C2CC1(O)NC(=O)O2 (stereo not drawn) ... 9.59 µM

query: Consider the compound `CN(C)S(=O)(=O)c1ccc(Cl)c(NC(=O)CSc2nnnn2-c2ccc(O)cc2)c1` tested on Protein disulfide-isomerase (Homo sapiens) (UniProt P07237); state its AC50.
result: 19.5 µM

query: Consider the compound `Cc1ccc(S(=O)(=O)CCC(=O)c2ccc(O)cc2O)cc1` tested on Protein disulfide-isomerase (Homo sapiens) (UniProt P07237); state its AC50.
result: 15.6 µM

* * *

tested target: Protein disulfide-isomerase (Homo sapiens) (UniProt P07237)
assay procedure: inhibition of PDI-mediated insulin reduction – biochemical, turbidity, absorbance, cherry-picked samples, set 2, dose response (AID 624274)
assay context: absorbance 650 nm
measurement name: AC50

Completed entries (count: 4):
Cc1c(O)ccc2c(CN3CCN(CCO)CC3)cc(=O)oc12 ... 8.66 µM
C[C@]12CC[C@@H]3c4ccc(O[C@@H]5O[C@H](C(=O)O)[C@@H](O)[C@H](O)[C@H]5O)cc4CC[C@H]3[C@@H]1C[C@@H](O)[C@@H]2O ... 15.7 µM
O=C(c1c(O)cc(O)cc1O)C1c2c(cc(O)c3c2O[C@H](c2ccc(O)cc2)[C@@H](O)C3)OC1c1ccc(O)cc1 (stereo not given in full) ... 19.5 µM
C[C@@H]1O[C@@H](OC[C@@H]2O[C@H](Oc3c(-c4ccc(O)cc4)oc4cc(O)cc(O)c4c3=O)[C@@H](O)[C@H](O)[C@H]2O)[C@H](O)[C@H](O)[C@H]1O ... 3.51 µM

query: State its AC50: `Cc1noc(C)c1S(=O)(=O)Nc1ccc2c(c1)CC(=O)N([C@@H](C)CO)C[C@H](C)[C@H](CN(C)S(=O)(=O)c1ccc(F)cc1)O2`
result: 19.5 µM

query: State its AC50: `CN(C)C(=O)CSc1nnc([C@H](Cc2c[nH]c3ccccc23)NC(=O)OC(C)(C)C)o1`
result: 19.5 µM

query: State its AC50: `C[C@@H]1O[C@@H](O[C@H]2[C@H](O)[C@@H](O)[C@H](Oc3c(-c4ccc(O)cc4)oc4cc(O)cc(O)c4c3=O)O[C@@H]2CO)[C@H](O)[C@H](O)[C@H]1O`
result: 6.92 µM

query: State its AC50: `COc1ccc(N2CCN(CC(=O)c3ccc(O)c(C)c3O)CC2)cc1`
result: 19.5 µM

query: State its AC50: `O=C(c1ccco1)N1CCN(Cc2cc(=O)oc3cc(O)ccc23)CC1`
result: 19.5 µM

query: State its AC50: COc1cccc2c1C(=O)c1c(O)c3c(c(O)c1C2=O)CC(O)(C(C)=NO)CC3OC1CC(N)C(O)C(C)O1 (stereo not given)
result: 16.9 µM

query: State its AC50: COc1cc2cc(C(=O)N3CC(COS(C)(=O)=O)c4ccc(O)cc43)[nH]c2c(OC)c1OC (stereo not given)
result: 18 µM

query: State its AC50: `O=C(CCC1CCCCC1)NCCN1C2=NC[C@H](Cc3ccc(O)cc3)N2C[C@H]1Cc1ccc(O)cc1`
result: 19.5 µM

query: State its AC50: `O=C1NC[C@H](Cc2ccccc2)N(C[C@H]2CCCN2C[C@H](Cc2ccccc2)N2C[C@H](Cc3ccc(O)cc3)N(CCc3ccccc3)C(=O)C2=O)C1=O`
result: 6.5 µM

query: State its AC50: `C[C@H](CO)N1C[C@H](C)[C@H](CN(C)S(=O)(=O)c2ccc(F)cc2)Oc2ccc(NC(=O)Cc3cn(C)c4ccccc34)cc2C1=O`
result: 19.5 µM

query: State its AC50: `C[C@@H]1CN([C@@H](C)CO)C(=O)c2cc(NC(=O)Cc3cn(C)c4ccccc34)ccc2O[C@H]1CN(C)S(=O)(=O)c1ccc(F)cc1`
result: 2.08 µM
